tested on: tactile allodynia in the rat Chung model; experiment: Chung model: reversal of tactile allodynia (von Frey hairs) after spinal nerve ligation; type: in vivo; conditions: Rattus norvegicus, ip, 1 h, 30 μg/kg IP, peak at 60 min post dose, read-out: Peak % Pain reversal: time post dose
Counter-ions that a name gives are not always drawn.

molecule	inhibition in vivo at 0.03 mg/kg
NC(C(=O)N1CC[C@H](F)C1)C(O)c1ccncc1 (single isomer, unassigned; (-)) [Compound 248, dihydrochloride]	59%
N[C@@H](C(=O)N1CCCC1)[C@H](O)c1ccncc1 (racemic) [Compound 219, dihydrochloride]	82%
N[C@@H](C(=O)N1CCCC1)[C@@H](O)c1cccnc1 (racemic) [Compound 20, dihydrochloride]	92%
N[C@@H](Cc1ccncc1)C(=O)N1CCCC1 [Compound 240, dihydrochloride]	70%
NC(C(=O)N1CC[C@H](F)C1)C(O)c1ccncc1 (some centres unmarked) [Compound 214]	86%
